Would you mind telling me the reported inhibition at 32 µM of each entry?
- System: S. epidermidis strain ATCC 35984
- experimentNotes: Biofilm prevention screen (96-well microplate, crystal violet)
- Assay type: cell-based
- experimentalParameters: Staphylococcus epidermidis, ATCC35984, 32 μM, positive = prevention, negative = enhancement of biofilm formation, quadruplicate, read-out: average percentage reduction of biofilm formed relative to DMSO controls
One number for each entry, in %.

Below, each entry is followed by its recorded inhibition at 32 µM result.
CCCCCCCCNC(=O)[C@H]1CCCCN1C(C)=O :: -8
CCCCCCCCNC(=O)[C@H]1CCCCN1C(=O)OC(C)(C)C :: -6
CCCCCCCCCCCCNC(=O)[C@@H]1CCN1 :: 101
CCCCCCCCCCCCNC(=O)[C@@H]1CCCN1C(=O)OC(C)(C)C :: -9
CCCCCCCCCCCCNC(=O)[C@H]1CCCN1 :: 40
CCCCCCCCCCNC(=O)[C@@H]1CCCN1 [Compound 32, L-proline n-decyl amide] :: -3
CCCCCCCCNC(=O)[C@H]1CCCCN1C(=O)CCCCCCC :: -5
CCCCCCCCCCCCNC(=O)[C@@H]1CCCN1 :: 101
CCCCCCCCCCNC(=O)[C@@H]1CCN1 :: 39
CCCCCCCCNC(=O)[C@@H]1CCCCN1C(=O)OC(C)(C)C :: -11

// for each compound below, give its inhibition at 32 µM
1. CCCCCCNC(=O)[C@H]1CCCN1
2. CCCCCCCCCCNC(=O)[C@@H]1CCCN1C(=O)OC(C)(C)C
3. CCCCCCCCCCCCNC(=O)[C@H]1CCCN1C(=O)OC(C)(C)C
4. CCCCCCNC(=O)[C@@H]1CCN1C(=O)OC(C)(C)C
5. CCCCCCCCNC(=O)[C@@H]1CCN1C(=O)OC(C)(C)C
6. CCCCCCCCNC(=O)[C@H]1CCCCN1

-3
-21
-9
-3
-4
-1

Quick one: give me inhibition at 32 µM for each item below, same order please.
1. CCCCCCCCNC(=O)[C@H]1CCCN1
2. CCCCCCNC(=O)[C@@H]1CCCN1C(=O)OC(C)(C)C
3. CCCCCCCCNC(=O)[C@@H]1CCCN1

-8
-18
-7

Could you tell me inhibition at 32 µM for each of these compounds? They are listed below.
1. CCCCCCCCNC(=O)[C@@H]1CCCCN1
2. CCCCNC(=O)[C@H]1CCCN1C(=O)OC(C)(C)C

1: 1; 2: -5

----------
- Test system: P. aeruginosa strain PAO1
- experimentNotes: Biofilm prevention screen (96-well microplate, crystal violet)
- Format: cell-based
- experimentalParameters: Pseudomonas aeruginosa, 32 μM, positive = prevention, negative = enhancement of biofilm formation, quadruplicate, read-out: average percentage reduction of biofilm formed relative to DMSO controls
resultType: inhibition at 32 µM (%)
Numbers only, in %.

CCCCCCCCCCCCNC(=O)[C@@H]1CCCN1C(=O)OC(C)(C)C :: -2
CCCCCCCCCCCCNC(=O)[C@@H]1CCN1C(=O)OC(C)(C)C :: -5
CCCCCCCCCCNC(=O)[C@H]1CCCN1 :: 10

Quick batch: inhibition at 32 µM for everything below.
1. CCCCCCNC(=O)[C@H]1CCCN1C(=O)OC(C)(C)C
2. CCCCCCCCNC(=O)[C@H]1CCCCN1
3. CC(C)(C)OC(=O)N1CCC[C@@H]1C(=O)NCCCCCCCCCCCCNC(=O)[C@H]1CCCN1C(=O)OC(C)(C)C
4. CCCCCCCCNC(=O)[C@H]1CCCCN1C(=O)OC(C)(C)C
5. CCCCCCCCNC(=O)C1CCCN1C(C)=O (stereo not drawn)
6. CCCCCCCCCCCCNC(=O)[C@@H]1CCCN1

1. -9
2. -5
3. 11
4. 0
5. -9
6. 3

----------
- System: S. epidermidis strain ATCC 35984
- experimentNotes: Biofilm prevention screen (96-well microplate, crystal violet)
- Assay type: cell-based
- experimentalParameters: Staphylococcus epidermidis, ATCC35984, 160 μM, positive = prevention, negative = enhancement of biofilm formation, quadruplicate, read-out: average percentage reduction of biofilm formed relative to DMSO controls
- Description: […] Cells present in biofilm attached to the microplate surface are stained with CV either after removal of the liquid from each well, followed by rinsing three times (aspiration and addition) with 150 μl per well phosphate buffered saline solution (PBS) and final addition of 100 μl per well of PBS, or by direct addition of stain to bacterial cultures without rinsing. […] Readings from wells containing compounds are compared to the average of data from control wells that contain only DMSO. […]
resultType: inhibition at 160 µM (%)
Answers are plain numbers, in %.

CCCCCCCCCCNC(=O)C1CCCN1C(C)=O (stereo not shown) :: -69

Provide reported inhibition at 160 µM for each item, in the same order as listed.
1. CCCCCCCCCCNC(=O)[C@@H]1CCN1C(=O)OC(C)(C)C
2. CCCCCCCCCCCCNC(=O)[C@@H]1CCN1C(=O)OC(C)(C)C
3. CCCCCCNC(=O)[C@@H]1CCCN1C(=O)OC(C)(C)C
4. CCCCCCNC(=O)[C@H]1CCCN1C(=O)OC(C)(C)C
5. CCCCCCCCCCNC(=O)[C@H]1CCCN1
6. CCCCNC(=O)[C@H]1CCCN1C(=O)OC(C)(C)C
7. CCCCCCNC(=O)[C@H]1CCCN1

1. 17
2. -29
3. -17
4. -7
5. 100
6. -13
7. -5

Would you be so kind as to report inhibition at 160 µM for each listed record?
1. CCCCCCCCCCNC(=O)[C@@H]1CCCN1 [Compound 32, L-proline n-decyl amide]
2. CCCCCCNC(=O)[C@@H]1CCN1C(=O)OC(C)(C)C

100
-10

----------
Please go through the items and note down their inhibition at 390 µM.
- System: S. epidermidis strain ATCC 35984
- experimentNotes: Improved biofilm dispersion screen (already-formed biofilms, crystal violet)
- Assay type: cell-based
- experimentalParameters: Staphylococcus epidermidis, ATCC35984, no NaOH, positive = dispersion, negative = enhancement of pre-existing biofilm, quadruplicate, read-out: average percentage reduction of biofilm relative to the two control values (dispersion)
Output should be the measured figure followed by the unit it is expressed in.

Observe how each entry below is paired with its result.
O=C(NCCCCCCCCCCCCNC(=O)[C@H]1CCCN1)[C@H]1CCCN1 [Compound 226, D-proline 1,12-diaminododecane bisamide] :: 26%
CCCCCCCCCCCCNC(=O)[C@H]1CCCN1C(=O)OC(C)(C)C [Compound 159] :: 0%
CCCCCCCCNC(=O)C1CCCN1C(C)=O (centres unmarked) [Compound 8] :: 0%

Dear colleague, could you send me inhibition at 390 µM for each of the items below? Thanks.
1. CCCCCCCCCCNC(=O)C1CCCN1C(C)=O (centres unmarked) [Compound 9]
2. CCCCCCCCNC(=O)[C@H]1CCCN1C(=O)OC(C)(C)C [Compound 154]

["21%", "0%"]

----------
- Test system: S. epidermidis strain ATCC 35984
- experimentNotes: Biofilm prevention screen (96-well microplate, crystal violet)
- Type: cell-based
- experimentalParameters: Staphylococcus epidermidis, ATCC35984, 390 μM, positive = prevention, negative = enhancement of biofilm formation, quadruplicate, read-out: average percentage reduction of biofilm formed relative to DMSO controls
resultType: inhibition at 390 µM (%)
Answers are plain numbers, in %.

I'm hoping you can list inhibition at 390 µM for every molecule here, please.
1. CCCCCCNC(=O)[C@@H]1CCCN1 [Compound 30]
2. CCCCNC(=O)[C@H]1CCCN1C(=O)OC(C)(C)C [Compound 152]
3. CCCCCCCCCCCCNC(=O)[C@H]1CCCN1C(=O)OC(C)(C)C [Compound 159]
4. CCCCCCNC(=O)[C@H]1CCCN1C(=O)OC(C)(C)C [Compound 153]
5. CCCCCCNC(=O)[C@@H]1CCCN1C(=O)OC(C)(C)C [Compound 10]
6. CCCCCCCCCCNC(=O)[C@H]1CCCN1 [Compound 166]
7. CCCCCCCCNC(=O)[C@@H]1CCCCN1C(C)=O [Compound 21]
8. CCCCCCCCCCCCNC(=O)[C@@H]1CCN1C(=O)OC(C)(C)C [Compound 286]

[-6, -8, -3, -17, -25, 101, -24, 12]

----------
- Tested on: S. epidermidis strain ATCC 35984
- experimentNotes: Biofilm prevention screen (96-well microplate, crystal violet)
- Type: cell-based
- experimentalParameters: Staphylococcus epidermidis, ATCC35984, 160 μM, positive = prevention, negative = enhancement of biofilm formation, quadruplicate, read-out: average percentage reduction of biofilm formed relative to DMSO controls
Give inhibition at 160 µM for every item shown.
Numbers only, in %.

// for each compound below, give its inhibition at 160 µM
1. CCCCCCCCCCNC(=O)[C@H]1CCCN1C(=O)OC(C)(C)C [Compound 158]
2. CCCCCCCCCCCCNC(=O)[C@@H]1CCCN1 [Compound 168]
3. CCCCCCNC(=O)C1CCCN1C(C)=O (racemic) [Compound 7]
4. CCCCCCCCNC(=O)[C@@H]1CCN1 [Compound 288]
5. CCCCCCCCCCCCNC(=O)[C@H]1CCCN1 [Compound 167]

[52, 100, 6, 101, 100]
